test: Study 2 (MAD) plasma and urine pharmacokinetics; type: in vivo, human; details: human, plasma, oral, 100 mg, IR 100 mg BID, day 1, fed (standard meal); read-out: Cmax, geometric mean (%CV)
ENDPOINT: Cmax (ng/mL)
Numbers only, in ng/mL.

[Q] # return recorded Cmax for entry CC[C@@H]1[C@H](F)C(=O)N[C@@H]1COc1nccc2cc(C(N)=O)c(OC)cc12
[A] 102

----------
assay: Study 2 (MAD) plasma and urine pharmacokinetics; type: in vivo, human; details: human, urine, oral, 750 mg, IR 750 mg BID, day 14, fed (standard meal); read-out: CLr (renal clearance), geometric mean (%CV)
ENDPOINT: CL renal
Write your answer as a measured quantity: the number, then the unit.

[Q] Give the measured CL renal for CC[C@@H]1[C@H](F)C(=O)N[C@@H]1COc1nccc2cc(C(N)=O)c(OC)cc12
[A] 23 mL/min

----------
Assay: Study 2 (MAD) plasma and urine pharmacokinetics
Assay type: in vivo, human
Conditions: human, plasma, oral, 25 mg, IR 25 mg BID, day 1, fed (standard meal); read-out: Tmax, median (range)
Procedure: Subjects were enrolled sequentially into seven cohorts. Within each cohort, eight subjects and two subjects were randomized to receive PF-06650833 and placebo, respectively. Doses for all cohorts were administered after a standard (not high-fat) meal. […] PF-06650833 IR 330 mg TID (cohort 6) and an MR tablet at a dose of 300 mg QD (cohort 7) were also evaluated (see Fig. 1b for final dosing scheme). […] PK parameters were calculated using non-compartmental analysis of concentration-time data. […]
ENDPOINT: Tmax (h)
One number for each entry, in h.

[Q] Note Tmax for the molecule shown: CC[C@@H]1[C@H](F)C(=O)N[C@@H]1COc1nccc2cc(C(N)=O)c(OC)cc12 [PF-06650833]
[A] 2

----------
experiment: clinical; conditions: human, in vivo, 100 mg, AUCinf, geometric mean (%CV)
ENDPOINT: AUC(0-inf) (ng·h/mL)
Give bare numbers, in ng·h/mL.

[Q] Respond only with AUC(0-inf) recorded for CC[C@@H]1[C@H](F)C(=O)N[C@@H]1COc1nccc2cc(C(N)=O)c(OC)cc12
[A] 839

----------
Assay: Study 2 (MAD) plasma and urine pharmacokinetics
Type: in vivo, human
Conditions: human, plasma, oral, 100 mg, IR 100 mg BID, day 1, fed (standard meal); read-out: Tmax, median (range)
Procedure: Subjects were enrolled sequentially into seven cohorts. Within each cohort, eight subjects and two subjects were randomized to receive PF-06650833 and placebo, respectively. Doses for all cohorts were administered after a standard (not high-fat) meal. […] PF-06650833 IR 330 mg TID (cohort 6) and an MR tablet at a dose of 300 mg QD (cohort 7) were also evaluated (see Fig. 1b for final dosing scheme). […] PK parameters were calculated using non-compartmental analysis of concentration-time data. […]
ENDPOINT: Tmax

[Q] Identify Tmax associated with the molecule CC[C@@H]1[C@H](F)C(=O)N[C@@H]1COc1nccc2cc(C(N)=O)c(OC)cc12
[A] 2.03 h

----------
assay: Study 2 (MAD) plasma and urine pharmacokinetics; type: in vivo, human; details: human, plasma, oral, 1000 mg, IR 1000 mg QID, day 1, fed (standard meal); read-out: Cmax, geometric mean (%CV)
ENDPOINT: Cmax (ng/mL)
Answers are plain numbers, in ng/mL.

[Q] Could you please provide reported Cmax for CC[C@@H]1[C@H](F)C(=O)N[C@@H]1COc1nccc2cc(C(N)=O)c(OC)cc12 ? Thanks!
[A] 517
